read-out: TIMP metallopeptidase inhibitor 1 (TIMP1), TIMP1 (gene 7076); test: BSK_hDFCGF_TIMP1: BioMAP Diversity Plus: hDFCGF Assay for TIMP metallopeptidase inhibitor 1 (TIMP1) Biomarker Activity (AID 2283062); conditions: primary human foreskin fibroblasts; actives raise or lower the signal
Activity calls are given as the source filed them. The calls were made as follows: active = hit-call score of the fitted dose curve at least 0.9, where 1 is the maximum; inactive = score below 0.9.
Your reply should match one of these outcome classes. active, inactive

Worked examples follow.
OC[C@H]1O[C@H](O[C@]2(CCl)O[C@H](CCl)[C@@H](O)[C@@H]2O)[C@H](O)[C@@H](O)[C@H]1Cl	inactive
Nc1cc([N+](=O)[O-])ccc1O	inactive
BrC1CCC(Br)C(Br)CCC(Br)C(Br)CCC1Br (stereo unspecified)	inactive
O=C1OC2(c3cc(Br)c(O)c(Br)c3Oc3c2cc(Br)c(O)c3Br)c2c(Cl)c(Cl)c(Cl)c(Cl)c21	active
c1ccc2c(c1)c1cccc3ccc4cccc2c4c31	inactive
CNC[C@H](O)c1cccc(O)c1	inactive
NCCNCCN	inactive
O=C(O)c1cn(C2CC2)c2cc(N3CCNCC3)c(F)cc2c1=O	inactive
CC1CCC(C(C)CS)CC1S (stereo unspecified)	active
C=C[Si](OCC)(OCC)OCC	inactive

Outcome logged for `O=P(c1ccccc1)(c1ccccc1)c1ccccc1` in this assay:
inactive

For `CCCCC/C=C/C=C/C=O` , which call appears in the assay record?
active

Please let me know the test result on file for `CCn1c2ccccc2c2cc(N)ccc21` .
inactive

What classification did `CCC(=O)OCc1ccccc1` end up with in this test?
inactive

Field: outcome | Entry: `O=C(O)C[C@H](O)C[C@H](O)/C=C/c1c(C2CC2)nc2ccccc2c1-c1ccc(F)cc1`
inactive

Hey, what did the test say about `Nc1cc([N+](=O)[O-])ccc1Cl` ?
inactive

###

read-out: Collagen III, COL3A1 (gene 1281); assay: BSK_hDFCGF_CollagenIII: BioMAP Diversity Plus: hDFCGF Assay for Collagen III Biomarker Activity (AID 2283056); conditions: primary human foreskin fibroblasts; actives raise or lower the signal
Activity calls are given as the source filed them. Rule for the calls: active = hit-call score of the fitted dose curve at least 0.9, where 1 is the maximum; inactive = score below 0.9.
The categories you may choose from are active, inactive

c1ccc2c(c1)c1cccc3ccc4cccc2c4c31	inactive
CC(=O)Nc1ccccc1O	inactive
N#Cc1ccc(CC(=NNC(=O)Nc2ccc(OC(F)(F)F)cc2)c2cccc(C(F)(F)F)c2)cc1	inactive
CCCCCCCCCC=O	inactive
NCCNCCN	inactive

What outcome does the record of this test show for CC1COc2ccccc2N1C(=O)C(Cl)Cl (stereo not given) ?
active

// param item: `CCCCC/C=C/C=C/C=O` ; yields the recorded call
active

Assay outcome for `C=CCOC(=O)CCC1CCCCC1` : what was it?
inactive

###

Read-out: Monokine induced gamma interferon (MIG), CXCL9 (gene 4283)
Assay: BSK_hDFCGF_MIG: BioMAP Diversity Plus: hDFCGF Assay for Monokine induced gamma interferon (MIG) Biomarker Activity (AID 2283063)
Conditions: primary human foreskin fibroblasts; actives raise or lower the signal
Experimental: BSK_hDFCGF is a cell-based, multiplexed-readout assay that uses foreskin fibroblast, a human skin primary cell, with measurements taken at 24 hours after chemical dosing in a 96-well plate.BSK_hDFCGF_MIG is an assay component measured in the BSK_hDFCGF assay. It measures MIG antibody related to regulation of gene expression using ELISA technology.Data from the assay component BSK_hDFCGF_MIG was analyzed into 1 assay endpoint. […]
Active and inactive are the calls of the source. The calls were made as follows: active = hit-call score of the fitted dose curve at least 0.9, where 1 is the maximum; inactive = score below 0.9.
Select the correct class. Options are y = active, n = inactive and nothing else.

Use these answered entries as a reference point.
Cc1ccc(O)c(C(C)(C)C)c1	y
O=C=NC1CCC(CC2CCC(N=C=O)CC2)CC1 (stereo not given)	n
CC(C)(COC(=O)c1ccccc1)COC(=O)c1ccccc1	n
CCCCC(CC)COCCC#N (stereo not given)	n

--- query ---
Can you look up the reported call for `CC(C)Oc1ccccc1O` for me?
n

Ref: PubChem BioAssay (EPA / NIEHS)
